experiment: protein stability index of a GFP-peptide fusion (GPS, HEK-293T) (PSI 1-6); higher = more stable; conditions: treatment: DMSO; c terminus: a fixed tail appended;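 also: 24-mer peptide tiles fused after GFP, lentivirally expressed, FACS-sorted into six equal bins by GFP/DsRed ratio, decoded by Illumina sequencing, PSI is the read-weighted mean bin number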
Hi there, I'd appreciate the recorded protein stability index for every entry that follows.
Quick one: just the number, no unit, thanks!

Fill blank: measured protein stability index of the sequence KGEEVTPISAIRHEGKTDSERTDT [EPB41L3] is ____.
5.44

// query: SWNVAVKFLMARKFDVLRAIELFH [PTPN9]
2.18

Can you check TKKHIPYREHKSLTGTARYMSINT [CSNK1G1] next?
2.51

====

Provide the recorded protein stability index for the entries that follow.
assay: protein stability index of a GFP-peptide fusion (GPS, HEK-293T) (PSI 1-6); higher = more stable; conditions: treatment: MLN4924 1 uM, 8 h; c terminus: a fixed tail appended

Please look up its protein stability index: AFHEPQVGLIQAAQQLLCDEQAPQ [DFFB]
4.92

Cool, now RGKKLMVLTEPILIETYTGLMSFI [TPRG1]
2.6

Moving on to the next sequence: VRGPLQDSSWYEPSAELVQTRMAV [ZNF232]
3.09

Query REKGGKVLVHCEAGISRSPTICMA [DUSP5] next
3.03

Follow-up item: SLQQMQELSNILNLSYKQVKTWFQ [NANOGP8]
2.16

Now try DFQGRILSVDPEEEREEGPPRIPQ [RHOBTB1] .
5.22

What do we get for GLGNTWPGASGSAQSLDRLGIMGA [ATP23] ?
3.48

And KPVLAKDSSNPYPNFNFNISHQGD [AASDHPPT] ?
4.01

Item: AKDYADSIHAIFVETSAKNAININ [RAB22A]
2.48

Would you mind doing NEGAIDCVNYEGQSAYDVADMLKQ [DLC1] as well?
4.82

Let us now turn to CTEILTEKKDTITNDSLSLKPSWF [MIA2]
3.42

Another: QVFRLAFRSGALDLDSCSRDGALL [MYORG]
2.14

Thanks! And APAGASYNPSFEDHQTLLSAAHEV [NOP53] ?
4.71

And ELKVKDSQPIDLSACTVALHIFQL [TRIP13] ?
2.15

Same for HMEEEVEDFLLKKPIVPTDGKRVI [CDC25A]
4.84

Ok, now GEKPHRCPQCGKCFARKSQLTGHQ [ZNF449]
4.85

Try this sequence too: EVEAKFKRYESHPVCADLQAKILQ [CHCHD3]
3.58

Next entry: PVPATPILQLEECCTHNNSATLSW [TRIM9]
3.38

Next up: NVGLESKYLKKREDSIPLRGLSQN [SASS6]
4.06

Would you kindly repeat that for YEYTSCTTFSTTSGYMEGYYTFHF [FBXO3] ?
3.2

Consider next the sequence KTKTSEYPIIFVYYLRKGKKINSN [SPANXN3] in the same way.
2.01

Also check VLEEQLVKAKEQIENYKKQTRNGL [FUT8]
3.89

For CLKEFPEKQELHRNMLGLLGNVAE [ZER1] then?
3.3

Thanks! And PGPPSAPPPPPKEGHQEGLVELPA [SCNN1D] ?
5.47

Field entry: VTCKDKKGYTPLHAAASNGQINVV [ANKRD44]
3.24

Subsequent entry: GKRRKDEISVDSLDFSKKILHTAW [PPP2R2B]
2.52

Next: KLGLHDNHWVPACHSFNRAIHKKA [FBXO34]
2.91

Next: TVDKEVEIRKKVLKIYNKREEDFP [MNAT1]
4.27

Same for CEDLDELHYQDTDSDVPEQRDSKC [MYBL2]
5.54

// same read-out, input: VILGVTNPFFAKTLQHWPHIIRIG [DENND6A]
2.78

Similarly, GAYKSSTICYCPEKGTWTELEGDV [KLHL14] ?
4.38

Cool, now GGKIIMPPSALDQLSRLNITYPML [UFD1]
2.28

What about this sequence? LSAASPDTGHDSDKSDQSLPNASA [TRAF3IP2]
5.51

Param item: PNGKHSTNFVSRYDPRFNSWIQLP [KLHL14]
2.58

Another sequence: YIHSCPKMKYKGQYRPSDLLCPET [ATE1]
2.47

And what about the sequence CGFGGGAGSVFGGGFGGGVGGGFG [KRT15] ?
2.77

// next record TEDVNTLDSEKRTPLHVAAFLGDA [ANKRD44]
4.74

Again, but for KKDILLVNDHLLNFVRERTLDKRW [PDS5B]
2.35
